target: T1, Human CD137 ECD (human); assay: Biacore SPR, vs parent H183/L072
T1 construct: entry includes C-terminal His-tag and biotin acceptor peptide; also called human CD137 extracellular domain; 4-1BB
T1 sequence (chain, as listed by the source limits assumed): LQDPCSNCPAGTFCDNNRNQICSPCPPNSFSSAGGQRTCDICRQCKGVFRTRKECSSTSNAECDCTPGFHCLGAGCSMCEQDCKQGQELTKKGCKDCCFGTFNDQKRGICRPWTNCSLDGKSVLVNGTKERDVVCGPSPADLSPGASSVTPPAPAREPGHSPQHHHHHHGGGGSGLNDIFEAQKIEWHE
In this section we review reported fold change of affinity values for a set of binders.
Write the value in fold as a bare number.

[[record]]
binder = "H183/L072 VL K50Q (antibody, name in Kabat numbering, V domains shown, Dual-Ig) VH: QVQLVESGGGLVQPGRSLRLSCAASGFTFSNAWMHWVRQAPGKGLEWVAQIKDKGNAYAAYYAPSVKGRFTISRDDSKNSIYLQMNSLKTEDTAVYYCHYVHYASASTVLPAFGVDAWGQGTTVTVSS VL: DIVMTQSPLSLPVTPGEPASISCQASQELVHMNRNTYLHWYQQKPGQAPRLLIYQVSNRFPGVPDRFSGSGSGTDFTLKISRVEAEDVGVYYCAQGTSVPFTFGQGTKLEIK"
measured_attribute = "fold change of affinity"
assay_value = 0.2

[[record]]
binder = "H183/L072 VL Q24V (antibody, name in Kabat numbering, V domains shown, Dual-Ig) VH: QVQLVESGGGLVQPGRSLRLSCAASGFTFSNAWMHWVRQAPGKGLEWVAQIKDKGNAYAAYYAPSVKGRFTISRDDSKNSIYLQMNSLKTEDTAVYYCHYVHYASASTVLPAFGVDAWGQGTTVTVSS VL: DIVMTQSPLSLPVTPGEPASISCVASQELVHMNRNTYLHWYQQKPGQAPRLLIYKVSNRFPGVPDRFSGSGSGTDFTLKISRVEAEDVGVYYCAQGTSVPFTFGQGTKLEIK"
measured_attribute = "fold change of affinity"
assay_value = 0.9

[[record]]
binder = "H183/L072 VL M27eW (antibody, name in Kabat numbering, V domains shown, Dual-Ig) VH: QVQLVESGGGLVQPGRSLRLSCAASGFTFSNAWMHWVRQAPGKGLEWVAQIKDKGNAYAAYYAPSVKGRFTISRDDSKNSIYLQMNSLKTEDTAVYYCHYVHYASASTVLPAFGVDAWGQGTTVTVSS VL: DIVMTQSPLSLPVTPGEPASISCQASQELVHWNRNTYLHWYQQKPGQAPRLLIYKVSNRFPGVPDRFSGSGSGTDFTLKISRVEAEDVGVYYCAQGTSVPFTFGQGTKLEIK"
measured_attribute = "fold change of affinity"
assay_value = 0.7


Can you look up the measured fold change of affinity of H183/L072 VL G91W (antibody, name in Kabat numbering, V domains shown, Dual-Ig) VH: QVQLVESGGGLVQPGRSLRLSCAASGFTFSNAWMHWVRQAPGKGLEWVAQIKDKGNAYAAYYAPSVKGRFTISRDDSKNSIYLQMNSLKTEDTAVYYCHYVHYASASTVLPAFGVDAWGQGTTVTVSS VL: DIVMTQSPLSLPVTPGEPASISCQASQELVHMNRNTYLHWYQQKPGQAPRLLIYKVSNRFPGVPDRFSGSGSGTDFTLKISRVEAEDVGVYYCAQWTSVPFTFGQGTKLEIK for me?
0

Note, next up: H183/L072 VL P95V (antibody, name in Kabat numbering, V domains shown, Dual-Ig) VH: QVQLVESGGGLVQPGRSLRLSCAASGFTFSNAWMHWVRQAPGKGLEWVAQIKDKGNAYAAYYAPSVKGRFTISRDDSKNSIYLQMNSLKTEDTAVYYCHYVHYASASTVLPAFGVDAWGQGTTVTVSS VL: DIVMTQSPLSLPVTPGEPASISCQASQELVHMNRNTYLHWYQQKPGQAPRLLIYKVSNRFPGVPDRFSGSGSGTDFTLKISRVEAEDVGVYYCAQGTSVVFTFGQGTKLEIK
0

Note, next up: H183/L072 VL Q90P (antibody, name in Kabat numbering, V domains shown, Dual-Ig) VH: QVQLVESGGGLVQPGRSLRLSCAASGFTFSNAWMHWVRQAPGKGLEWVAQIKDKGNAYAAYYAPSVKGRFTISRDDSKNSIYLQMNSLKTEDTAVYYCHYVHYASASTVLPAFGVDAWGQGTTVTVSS VL: DIVMTQSPLSLPVTPGEPASISCQASQELVHMNRNTYLHWYQQKPGQAPRLLIYKVSNRFPGVPDRFSGSGSGTDFTLKISRVEAEDVGVYYCAPGTSVPFTFGQGTKLEIK
0

Note, next up: H183/L072 VL F55R (antibody, name in Kabat numbering, V domains shown, Dual-Ig) VH: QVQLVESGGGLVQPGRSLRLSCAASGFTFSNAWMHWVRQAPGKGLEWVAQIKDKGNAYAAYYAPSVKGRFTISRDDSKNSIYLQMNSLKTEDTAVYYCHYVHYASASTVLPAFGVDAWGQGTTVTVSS VL: DIVMTQSPLSLPVTPGEPASISCQASQELVHMNRNTYLHWYQQKPGQAPRLLIYKVSNRRPGVPDRFSGSGSGTDFTLKISRVEAEDVGVYYCAQGTSVPFTFGQGTKLEIK
0

Origin of values: patent US20210388087A1
